Entry source: PubChem BioAssay AID651658

Quick reference for activity (Tm shift, normalised) among some compounds
Molecular target: Fibroblast growth factor 22 (Homo sapiens)
Experiment: binders of human FGF22 protein, primary screen, FGF22 synaptogenesis inhibitor project, biophysical, thermal shift, single point (AID 651658)
Details: recombinant FGF22 thermal shift, SYPRO orange fluorescence; at 9.99 µM; stronger effect = higher value; percent of sucrose octasulfate shift, DMSO zero
The whole screen tested about 340,000 compounds, of which about 5,100 (1.5%) were called active. The entries come from a sample that favours actives as a whole.
valueKind: activity (Tm shift, normalised) (%)

> print(dat)
                                inputsmiles  resultvalue
1  O=C(C[C@H]1CC[C@H](NC(=O)c2ccc(F)cc2)[C@@H](CO)O1)NCCc1ccncc1       -0.269
2  C[C@H]1CN([C@@H](C)CO)C(=O)Cc2cc(NS(=O)(=O)c3cn(C)cn3)ccc2O[C@@H]1CN(C)C(=O)Nc1ccc2c(c1)OCO2       -0.296
3  Cc1ccc(S(=O)(=O)N2C[C@@H](O)COC[C@@H]3O[C@H](CC(=O)NCCCN(C)C)CC[C@H]32)cc1        0.016
4  C[C@H](CO)N1C[C@H](C)[C@H](CN(C)C)Oc2ncc(-c3ccncc3)cc2C1=O       -0.058
